MS Results (IAPP binding), Water values by entry
Biological target: IAPP (Homo sapiens)
Construct: which is a 37 amino acid peptide, derived from a larger precursor peptide, called pro-IAPP
Sequence (P10997 34-70 limits assumed): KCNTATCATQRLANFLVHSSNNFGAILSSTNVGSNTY
Experiment: Electrospray MS assay for binding to IAPP
Set-up: key: 0 = None
Settings: 100 μM compound, 20 μM IAPP, pH 7.4, aqueous solution
value kind: MS Results (IAPP binding), Water

molecule	value kind	reading
N[C@@H](Cc1cccc(CSc2nc3ccccc3[nH]2)c1)C(=O)O [drawing 510]	MS Results (IAPP binding), Water	0
N[C@@H](Cc1cccc(CS(=O)(=O)c2ncc[nH]2)c1)C(=O)O [drawing 527]	MS Results (IAPP binding), Water	0
N[C@@H](Cc1cccc(CSc2ncnc3[nH]ncc23)n1)C(=O)O [drawing 513]	MS Results (IAPP binding), Water	0
N[C@@H](Cc1cccc(C[S+]([O-])c2nnc(-c3ccccc3)[nH]2)c1)C(=O)O (some centres unmarked) [drawing 526]	MS Results (IAPP binding), Water	0
